The reported numbers originate from patent US20170240628A1.

Target: T1, recombinant human midkine (huMK) (human, UniProt P21741 21-143)
T1 construct: also called human MK; Human MK
T1 sequence (looked up): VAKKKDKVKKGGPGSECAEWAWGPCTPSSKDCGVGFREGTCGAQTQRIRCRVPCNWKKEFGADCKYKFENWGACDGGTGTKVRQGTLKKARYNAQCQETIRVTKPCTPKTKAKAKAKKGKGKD
Assay: ELISA by the methods of Example 2 (printed as KD)
quantityName: Kd (nM)
Output spec: scalar in nM, unitless text.

IP14-H6L8 (antibody, V domains shown, also called hIP14-H6L8; Hv6 Lv8) VH: QVQLVQSGGGLVKPGHSLRLSCAASGQSFSSYWMNWVRQAPGKGLEWIGMIHPSDSETILNQKFKDKATLSVDIAKNSAYLQMNSLRAEDTAVYYCSSWSAKRGDFWGQGTLVTVSS VL: DIVLTQSPATLSLSPGERATLSCRASESISNNLHWYQQKPHQAPRLLIYYASQSISGVPARFSGSGSGTDFTLTISSVEPEDFAVYYCQQSNSWPLTFGQGTKVEIKR : 0.042

Q: Please give the documented Kd of IP14-H6L3 (antibody, V domains shown, also called hIP14-H6L3; Hv6 Lv3) VH: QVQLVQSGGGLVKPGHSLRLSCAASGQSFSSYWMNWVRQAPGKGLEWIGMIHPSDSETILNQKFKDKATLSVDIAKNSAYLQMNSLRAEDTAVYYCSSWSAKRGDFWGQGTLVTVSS VL: DIVLTQSPATLSLSPGERATLSCRASESISNNLHWYQQKPGQAPRLLIYYASQSISGIPARFSGSGPGTDFTLTISSLEPEDFAVYYCQQSNSWPLTFGGGTKLEIKR
Ans: 0.07

Q: Tell me measured Kd for IP14-H5L8 (antibody, V domains shown, also called hIP14-H5L8; Hv5 Lv8) VH: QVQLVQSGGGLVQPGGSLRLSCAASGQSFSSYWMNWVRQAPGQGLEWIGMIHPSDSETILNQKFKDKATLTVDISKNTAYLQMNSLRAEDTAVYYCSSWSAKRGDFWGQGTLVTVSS VL: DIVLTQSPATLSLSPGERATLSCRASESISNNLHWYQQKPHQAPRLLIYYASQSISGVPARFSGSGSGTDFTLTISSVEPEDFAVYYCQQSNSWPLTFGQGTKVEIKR please.
Ans: 0.06
